Test system: RVH-421 (Melanoma)
assayInfo: combination Emax (second highest fraction inhibited in the dose matrix, 72 h); higher = more inhibition; extreme values may be limits of the assay
Reported combination Emax values for the following compounds.

| compound | target | combination Emax |
| --- | --- | --- |
| Cc1c2c(nn1C)CSCc1cc(n(C)n1)CSc1cc(c3ccccc3c1)OCCCc1c(C(=O)O)n(C)c3c-2c(Cl)ccc13 [AZD5991] + Cn1cnc2c(F)c(Nc3ccc(Br)cc3Cl)c(C(=O)NOCCO)cc21 [Selumetinib] (first compound max 1 µM, 7x7, partner max 3 µM) | RVH-421 (Melanoma) | 0.449 |
| Cc1c2c(nn1C)CSCc1cc(n(C)n1)CSc1cc(c3ccccc3c1)OCCCc1c(C(=O)O)n(C)c3c-2c(Cl)ccc13 [AZD5991] + C[C@@H](Nc1cc(F)cc(F)c1)c1cc(C(=O)N(C)C)cc2c(=O)cc(N3CCOCC3)oc12 [AZD8186] (first compound max 1 µM, 7x7, partner max 3 µM) | RVH-421 (Melanoma) | 0.517 |

Source listed as the supplement of paper PMC11061612.
